Recorded below: pKi, system Thymidylate kinase (Homo sapiens) (UniProt P23919).
pKi: −log10 of the molar value.
measured.attribute: pKi

>>> experimental_result("Cc1cn([C@H]2C[C@H](CF)[C@@H](COP(=O)(O)O)O2)c(=O)[nH]c1=O")
4.40
>>> experimental_result("Cc1cn([C@H]2C[C@H](CN)[C@@H](CO)O2)c(=O)[nH]c1=O")
3.66
>>> experimental_result("Cc1cn([C@H]2C[C@H](CN=[N+]=[N-])[C@@H](CO)O2)c(=O)[nH]c1=O")
2.98
>>> experimental_result("Cc1cn([C@@H]2O[C@H](CO)[C@@H](CN)[C@H]2O)c(=O)[nH]c1=O")
3.96
>>> experimental_result("Cc1cn([C@H]2C[C@H](CO)[C@@H](CO)O2)c(=O)[nH]c1=O")
3.38
>>> experimental_result("Cc1cn([C@H]2C[C@H](CO)[C@@H](COP(=O)(O)O)O2)c(=O)[nH]c1=O")
4.36
>>> experimental_result("Cc1cn([C@@H]2O[C@H](COP(=O)(O)O)[C@@H](CN)[C@H]2O)c(=O)[nH]c1=O")
3.55
>>> experimental_result("Cc1cn([C@H]2C[C@H](CN=[N+]=[N-])[C@@H](COP(=O)(O)O)O2)c(=O)[nH]c1=O")
4.49
>>> experimental_result("Cc1cn([C@H]2C[C@H](CN)[C@@H](COP(=O)(O)O)O2)c(=O)[nH]c1=O")
5.33
>>> experimental_result("Cc1cn([C@H]2C[C@H](CF)[C@@H](CO)O2)c(=O)[nH]c1=O")
3.01
